Experiment: Approximate water solubility of pramipexole acid addition salts (saturation in water, shaken overnight, evaporation and weighing)
Conditions: thermodynamic from solid
Structures can show the parent of a compound that is named as a salt.
assayEndpoint: solubility

**Q:** Name the reported solubility value associated with the compound CCCN[C@H]1CCc2nc(N)sc2C1 [Pramipexole dihydrochloride monohydrate, pramipexole dihydrochloride monohydrate]
**A:** > 300 mg/mL
